These data points were gathered from patent US8501746B2.

melting point reference

Kindly note the recorded melting point for "Cc1nc(-n2ccc(OCc3ccc(OC(F)F)cc3)cc2=O)sc1C(=O)NCc1ccc(F)cc1" , which is 242 to 244 °C

Documented melting point of Cc1nc(-n2ccc(OCC3CCCO3)cc2=O)sc1C(=O)NCc1ccccc1 (centres unmarked) : 181 to 183 °C

Consider "Cc1nc(-n2ccc(NC(=O)c3ccccc3)cc2=O)sc1C(=O)NCc1ccccc1" . Its measured melting point is 246 to 248 °C

melting point reported for this compound "Cc1nc(-n2ccc(OCc3ccc(F)cc3)cc2=O)sc1C(=O)NCc1cccnc1" : 231 to 233 °C

Memo: "O=C(NCc1ccccc1)c1csc(-n2ccc(O)cc2=O)c1" , reported melting point: 150 °C (dec.)

For reference, reported melting point for "Cc1nc(-n2ccc(OCc3ccc(C(F)(F)F)cc3)cc2=O)sc1C(=O)NCc1ccccc1" stands at 278 to 280 °C

Entry under test: "Cc1cc(-n2ccc(OCCC3CC3)cc2=O)sc1C(=O)NCc1ccccc1" . Its melting point was 134 to 136 °C

Kindly review the next compound as well.
melting point reading for "Cc1nc(-n2ccc(OCc3ccccc3)cc2=O)sc1C(=O)NCc1cccnc1" : 208 to 209 °C
